Cited source: patent US20170305882A1

The reader will find reported IC50 values listed item by item below.
Molecular target: (recombinant) catalytic domain of human Bub1 (amino acids 704-1085) (Homo sapiens)
Construct: catalytic domain of human Bub1 (amino acids 704-1085); 6xHis (N); made in house; host or cells: Hi5 insect cells
Experiment: Equilibrium probe competition assay (TR-FRET kinase binding assay)
Details: Time 60 min; read-out: IC50 (Assay 5, probe competition)
attribute.measured: IC50

[[record]]
smiles_data = "CCOc1cc(F)c(Cn2nc(-c3ncc(OCCCO)c(Nc4ccnc(NC(C)=O)c4)n3)c3ccccc32)c(F)c1"
attribute_measured = "IC50"
observed_value = "0.32 nM"

[[record]]
smiles_data = "CCOc1cc(F)c(Cn2nc(-c3ncc(OCCCOC(=O)[C@H](C)NC(=O)[C@@H](N)CCCCN)c(Nc4ccnc(C(F)F)c4)n3)c3ccccc32)c(F)c1"
attribute_measured = "IC50"
observed_value = "1.4 nM"

[[record]]
smiles_data = "CCOc1cc(F)c(Cn2nc(-c3ncc(OCCCOC(=O)[C@H](C)NC(=O)[C@H](N)CCCCN)c(Nc4ccnc(NC(C)=O)c4)n3)c3ccccc32)c(F)c1"
attribute_measured = "IC50"
observed_value = "0.42 nM"

[[record]]
smiles_data = "CCOc1cc(F)c(Cn2nc(-c3ncc(OCCCO)c(Nc4ccncc4Cl)n3)c3ccccc32)c(F)c1"
attribute_measured = "IC50"
observed_value = "0.85 nM"

[[record]]
smiles_data = "CCOc1cc(F)c(Cn2nc(-c3ncc(OCCCOC(=O)[C@H](C)NC(=O)[C@@H](N)CCCCN)c(Nc4ccncc4Cl)n3)c3ccccc32)c(F)c1"
attribute_measured = "IC50"
observed_value = "0.6 nM"

[[record]]
smiles_data = "CCOc1cc(F)c(Cn2nc(-c3ncc(OCCCOC(=O)[C@H](C)NC(=O)[C@@H](N)CCCNC(=N)N)c(Nc4ccnc(NC(C)=O)c4)n3)c3ccccc32)c(F)c1"
attribute_measured = "IC50"
observed_value = "0.61 nM"


---

Assay: Stability in buffer at various pH values (HPLC detection)
Type: physicochemical
Details: Time 240 min; read-out: Recovery (Assay 6, prodrug stability)
attribute.measured: recovery at 240 min, 0.2 mg/mL (%)

[[record]]
smiles_data = "CCOc1cc(F)c(Cn2nc(-c3ncc(OCCCOC(=O)[C@H](C)NC(=O)[C@@H](N)CCCNC(=N)N)c(Nc4ccnc(NC(C)=O)c4)n3)c3ccccc32)c(F)c1"
observed_value = 53

[[record]]
smiles_data = "CCOc1cc(F)c(Cn2nc(-c3ncc(OCCCOC(=O)[C@H](C)NC(=O)[C@H](N)CCCCN)c(Nc4ccnc(NC(C)=O)c4)n3)c3ccccc32)c(F)c1"
observed_value = 31

[[record]]
smiles_data = "CCOc1cc(F)c(Cn2nc(-c3ncc(OCCCOC(=O)[C@H](C)NC(=O)[C@@H](N)CCCCN)c(Nc4ccnc(C(F)F)c4)n3)c3ccccc32)c(F)c1"
observed_value = 32

[[record]]
smiles_data = "CCOc1cc(F)c(Cn2nc(-c3ncc(OCCCOC(=O)[C@H](C)NC(=O)[C@@H](N)CCCCN)c(Nc4ccncc4Cl)n3)c3ccccc32)c(F)c1"
observed_value = 42


---

Assay: Stability in buffer at various pH values (HPLC detection)
Format: physicochemical
Conditions: Time 1440 min; read-out: Recovery (Assay 6, prodrug stability)
Procedure: Stability in Buffer at Various pH Values (HPLC Detection) 0.3 mg of the test compound was solved in 0.1 ml dimethylsulfoxide and 0.4 ml acetonitrile. For complete dissolution the HPLC vial with the sample solution was sonified for about 20 seconds. […] 10 μl portions of the sample solution were analysed by HPLC at different times (0 h, 1 h, 2 h, 4 h and 24 h) at 37° C. The peak areas in percentage were used for quantification. […]
The reader will find reported recovery at 1440 min, 0.2 mg/mL values listed item by item below.
attribute.measured: recovery at 1440 min, 0.2 mg/mL

[[record]]
smiles_data = "CCOc1cc(F)c(Cn2nc(-c3ncc(OCCCOC(=O)[C@H](C)NC(=O)[C@@H](N)CCCCN)c(Nc4ccnc(C(F)F)c4)n3)c3ccccc32)c(F)c1"
attribute_measured = "recovery at 1440 min, 0.2 mg/mL"
observed_value = "0%"

[[record]]
smiles_data = "CCOc1cc(F)c(Cn2nc(-c3ncc(OCCCOC(=O)[C@H](C)NC(=O)[C@H](N)CCCCN)c(Nc4ccnc(NC(C)=O)c4)n3)c3ccccc32)c(F)c1"
attribute_measured = "recovery at 1440 min, 0.2 mg/mL"
observed_value = "0%"

[[record]]
smiles_data = "CCOc1cc(F)c(Cn2nc(-c3ncc(OCCCOC(=O)[C@H](C)NC(=O)[C@@H](N)CCCCN)c(Nc4ccncc4Cl)n3)c3ccccc32)c(F)c1"
attribute_measured = "recovery at 1440 min, 0.2 mg/mL"
observed_value = "0%"

[[record]]
smiles_data = "CCOc1cc(F)c(Cn2nc(-c3ncc(OCCCOC(=O)[C@H](C)NC(=O)[C@@H](N)CCCNC(=N)N)c(Nc4ccnc(NC(C)=O)c4)n3)c3ccccc32)c(F)c1"
attribute_measured = "recovery at 1440 min, 0.2 mg/mL"
observed_value = "3%"

